assay: Components of the Cytosolic LPS Sensing Pathway: Gene Identification via Genome-wide siRNA Screen; settings: RAW264.7 macrophages, IL-1a HTRF, actives lie on both sides, screened at 100 nM (by protocol), cells primed 5 h with Pam3CSK4 first;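 also: robust z of the log signal after scaling to non-targeting control siRNA wells of the plate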
Out of some 53,000 sequences screened, about 3,700 (7%) were called active. The sample as a whole holds a higher share of actives than the screen did.
Could you please report measured z-score for the items listed next?
No unit in the answer, please; the number alone is enough.

Short answer for GGGCCAGCAAGGAAAGAAUTT against Pitx2 : z-score was -1.37

Short answer for GGGAUUGAUUUCAACAAUGTT against Vmn1r33 : z-score was 0.464

Short answer for GGCCAAGAAGAGAAAAACATT against Ccne2 : z-score was -1.54

Short answer for GGACCAUGGAUAUUUAAAGTT against Mafk : z-score was -0.297

Short answer for GGAGCAAGGCUACAUUUUUTT against Itih3 : z-score was 1.36

Short answer for CCAUGGAAUCUCCUAUACCTT against C4bp : z-score was -0.679

Short answer for CCCACUGGUUUGUUUAAACTT against Hbegf : z-score was 0.555

Short answer for GGAUCUUCUUCUAUCAGUCTT against Ncf4 : z-score was 0.487

Short answer for GCUGAGUCCAUGUCUGUUGTT against Coro2a : z-score was -0.119

Short answer for GCUUGCUAGAUUGGUGUUGTT against Arhgap17 : z-score was 3.32

Short answer for CGCGAGCUCAGAAUACAUGTT against Btn1a1 : z-score was 2.5

Short answer for GGGCCUCCUUCUCAUCAUUTT against Scarf2 : z-score was 0.9

----------
experiment: Components of the Cytosolic LPS Sensing Pathway: Gene Identification via Genome-wide siRNA Screen; conditions: RAW264.7 macrophages, IL-1a HTRF, actives lie on both sides, screened at 100 nM (by protocol), cells primed 5 h with Pam3CSK4 first;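 also: robust z of the log signal after scaling to non-targeting control siRNA wells of the plate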
Hit rate of the full screen: of about 53,000 sequences, about 3,700 (7%) were called active.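 The calls were made as follows: active = gene knockdowns whose robust z-score for IL-1 alpha signal is at least 2 or at most -2, so actives lie on both sides; inactive = the rest.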 Only a selection was taken, and actives are over-represented in it overall.
Respond only with the outcome that fits, drawn from t for active, f for inactive

Query string: Would you mind telling me which call this test gave GGAAGAAGACACAAAAAAUTT against Rcan3 ?
Result string: t

Query string: Would you mind telling me which call this test gave CGGUGAUAACAGACAUUAATT against Aldh8a1 ?
Result string: f

Query string: Would you mind telling me which call this test gave GCUCUCAUACACGGUGGAATT against Ros1 ?
Result string: f

Query string: Would you mind telling me which call this test gave CGGAUGUGGGCAUUCGUUATT against Fbxl7 ?
Result string: f

Query string: Would you mind telling me which call this test gave CGGCAGUCGUGAGACAUAUTT against Camk1d ?
Result string: f

Query string: Would you mind telling me which call this test gave GGAGCUAGACAAAACUAAATT against Vmn2r81 ?
Result string: f

Query string: Would you mind telling me which call this test gave GCAUGUAUAACAGACCCAUTT against Tex47 ?
Result string: f

Query string: Would you mind telling me which call this test gave GGGAUCUUACAUGCCACCATT against Olfr1231 ?
Result string: f

Query string: Would you mind telling me which call this test gave GGAGAUCUUCAAUAUGUUATT against Supt6 ?
Result string: t

Query string: Would you mind telling me which call this test gave GGCAUCUCCUCGAAUUUAUTT against Theg ?
Result string: f

Query string: Would you mind telling me which call this test gave GGUGCGUCCUGAAAUCAUCTT against Txndc12 ?
Result string: t

Query string: Would you mind telling me which call this test gave GGUUGUUUGACCAACAGCUTT against Inpp5d ?
Result string: f

Query string: Would you mind telling me which call this test gave GGAAGAAUGUAGGAGGAAGTT against Sln ?
Result string: f

Query string: Would you mind telling me which call this test gave CCAUUGGAGGAUAAGUUUUTT against Mtm1 ?
Result string: f

Query string: Would you mind telling me which call this test gave GGAUGGUGAAAAUCUUGAGTT against Mindy1 ?
Result string: f

Query string: Would you mind telling me which call this test gave CCGUAGUAGAGAAAUUACATT against Exoc6 ?
Result string: f

Query string: Would you mind telling me which call this test gave CCAUAUGUCCUGUUUAAGATT against Grik2 ?
Result string: f

Query string: Would you mind telling me which call this test gave GGAGUUCAAAGAUGCAAUUTT against Zfyve27 ?
Result string: t

Query string: Would you mind telling me which call this test gave GCCAUCACGAGCUAAAACCTT against Smad5 ?
Result string: f

Query string: Would you mind telling me which call this test gave CCCGUACAUUGAGUGCAAUTT against 6330403K07Rik ?
Result string: f

Query string: Would you mind telling me which call this test gave CCUACAACGAACGGGAGAATT against Dpm1 ?
Result string: f

Query string: Would you mind telling me which call this test gave GUAGUUAGGAACUCUUGCUTT against Thnsl2 ?
Result string: f

Query string: Would you mind telling me which call this test gave GCUUUGGUUGCUAACCCAATT against Slc45a2 ?
Result string: f

Query string: Would you mind telling me which call this test gave GCUCCAUCUACAAACAAUGTT against Gpr37l1 ?
Result string: f

Query string: Would you mind telling me which call this test gave GGGAUUGGUUAUUUUACAUTT against Trmt12 ?
Result string: f
